Source: paper PMC5377825

molecular target: OleTJE (CYP152L1) (Jeotgalicoccus sp. ATCC 8456, UniProt E9NSU2, H85Q); construct: gene JEM45_03820; full length, codon-optimized gene in modified pET15b, N-terminal polyhistidine tag with TEV site; tag kept for spectroscopy, cleaved for crystallography; expressed in E. coli C41 (DE3); test: UV-visible heme spectral titration; type: binding; conditions: read-out: Fatty acid Kd (HS) / C12:0
endpoint: Kd (µM)
Use µM as the unit, but write only the number.

// query For the compound CCCCCCCCCCCC(=O)O , report Kd.
// result 37.3

###

Target: OleTJE (CYP152L1) (Jeotgalicoccus sp. ATCC 8456, UniProt E9NSU2, F79A)
Construct: gene JEM45_03820; full length, codon-optimized gene in modified pET15b, N-terminal polyhistidine tag with TEV site; tag kept for spectroscopy, cleaved for crystallography; expressed in E. coli C41 (DE3)
Sequence (E9NSU2 1-422 F79A): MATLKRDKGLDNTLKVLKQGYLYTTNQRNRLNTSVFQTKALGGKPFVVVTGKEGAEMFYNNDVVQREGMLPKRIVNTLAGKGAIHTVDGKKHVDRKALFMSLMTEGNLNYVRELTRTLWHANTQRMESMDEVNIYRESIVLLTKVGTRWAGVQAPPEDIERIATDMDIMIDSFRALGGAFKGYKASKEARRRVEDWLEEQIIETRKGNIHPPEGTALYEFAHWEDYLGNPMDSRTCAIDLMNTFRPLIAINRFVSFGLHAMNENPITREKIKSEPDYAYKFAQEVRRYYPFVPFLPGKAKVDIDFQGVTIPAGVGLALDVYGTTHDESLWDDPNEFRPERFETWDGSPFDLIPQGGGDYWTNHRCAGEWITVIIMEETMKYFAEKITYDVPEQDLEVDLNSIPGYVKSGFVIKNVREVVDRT
Assay: UV-visible heme spectral titration
Format: binding
Details: read-out: Fatty acid Kd (HS) / C10:0
endpoint: pKd
To interpret pKd, take it as minus log10 of a concentration measured in moles per litre.

// query For the molecule CCCCCCCCCC(=O)O , report pKd.
// result 3.33

###

Target: OleTJE (CYP152L1) (Jeotgalicoccus sp. ATCC 8456, UniProt E9NSU2)
Construct: gene JEM45_03820; full length, codon-optimized gene in modified pET15b, N-terminal polyhistidine tag with TEV site; tag kept for spectroscopy, cleaved for crystallography; expressed in E. coli C41 (DE3)
Sequence (E9NSU2 1-422): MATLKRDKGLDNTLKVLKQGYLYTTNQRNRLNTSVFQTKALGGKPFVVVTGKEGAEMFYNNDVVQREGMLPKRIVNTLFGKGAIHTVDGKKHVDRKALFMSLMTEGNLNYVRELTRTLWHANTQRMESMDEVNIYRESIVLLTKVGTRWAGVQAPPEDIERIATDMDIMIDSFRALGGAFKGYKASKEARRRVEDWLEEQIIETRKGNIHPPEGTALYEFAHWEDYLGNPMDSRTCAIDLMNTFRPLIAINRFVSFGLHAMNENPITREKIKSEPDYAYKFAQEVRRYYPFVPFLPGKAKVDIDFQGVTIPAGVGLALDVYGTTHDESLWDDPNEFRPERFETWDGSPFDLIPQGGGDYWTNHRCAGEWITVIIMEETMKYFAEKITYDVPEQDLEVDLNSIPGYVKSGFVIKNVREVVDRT
Test: UV-visible heme spectral titration
Assay type: binding
Details: read-out: Fatty acid Kd (HS) / C14:0
endpoint: pKd
To interpret pKd, take it as minus log10 of a concentration measured in moles per litre.

// query For the compound CCCCCCCCCCCCCC(=O)O [C14:0, tetradecanoic acid] , report pKd.
// result 5.84
